Parameter: MIC. Scope: all listed entries.
# Test system: Aspergillus flavus
# TEST METHOD NOTES: Antifungal activity against Aspergillus flavus ATCC 204304 measured after 72 hrs by agar dilution method
# Assay type: functional
# CONDITION SET: ATCC 204304, 72 h

Field MIC (system: Aspergillus flavus) for entry CC(=O)OC[C@H]1O[C@@H](n2cc(COc3ccc4c(c3)OC(N)=C(C#N)C4c3ccccc3Cl)nn2)[C@H](OC(C)=O)[C@@H](OC(C)=O)[C@@H]1OC(C)=O (stereo partly drawn) = 6.25 µM

Lab note: compound "OC(Cn1cncn1)(Cn1cncn1)c1ccc(F)cc1F" tested on Aspergillus flavus; recorded MIC was 0.78 µM

Aspergillus flavus assay, compound CC(=O)OC[C@H]1O[C@@H](n2cc(COc3ccc4c(c3)OC(N)=C(C#N)C4c3ccc(Cl)cc3)nn2)[C@H](OC(C)=O)[C@@H](OC(C)=O)[C@@H]1OC(C)=O (stereo partly drawn) , recorded MIC = 25 µM
